Test system: Neisseria gonorrhoeae
Experiment: Antibacterial activity against Neisseria gonorrhoeae ATCC 49226 by disk diffusion method
Format: functional
result_type: MIC (µg/disc)
Your answer is read as µg/disc, so omit the unit and give the number.

Tell me its MIC given C/C=C(/C)C(=O)OCc1nccc2c1C(=O)C(N)=C(C)C2=O [CRIBROSTATIN 3] as the entry.
0.0975

Tell me its MIC given C/C=C(/C)C(=O)OC[C@H]1C2=C(C=C3[C@H]4c5c(O)c(OC)c(C)c(O)c5C(=O)[C@@H](C(=O)N31)N4C)C(=O)C(C)=C(OC)C2=O [CRIBROSTATIN 5] as the entry.
6.25

Tell me its MIC given CC1=C(N)C(=O)c2c(ccnc2C)C1=O [CRIBROSTATIN 1] as the entry.
0.39

Tell me its MIC given C/C=C(/C)C(=O)OCc1nccc2c1C(=O)C(NC)=C(C)C2=O [CRIBROSTATIN 4] as the entry.
6.25

Tell me its MIC given CCOC1=C(C)C(=O)c2cc(=O)n(C)cc2C1=O [CRIBROSTATIN 2] as the entry.
0.39
